Test: changes in parasitized red cell lysis, either direction – P. falciparum Indochina, OD700, 3 h, PSAC antagonist project, primary screen (AID 1156)
Details: P. falciparum-infected erythrocytes, osmotic lysis, higher = more signal, called active from +8 up or from −8 down
The source made the active and inactive calls.
Quantity kind: z-score

COC(=O)C(CC#Cc1ccc2c(c1)[C@]1(C(=O)N2)[C@H](C(=O)N2CCc3cc(OC)c(OC)cc3C2)[C@H]2C(=O)O[C@H](c3ccccc3)[C@H](c3ccccc3)N2[C@@H]1c1ccccc1OCCO)C(=O)OC : 0.848 (inactive)

Lookup: Return reported z-score. Input compound: COc1ccc([Si](C)(C)[C@@H]2[C@@H](CC(=O)N3Cc4ccccc4C[C@H]3CO)O[C@]3(C(=O)N(Cc4ccc(N5CCOC5=O)cc4)c4ccccc43)[C@H]2C)cc1
Found: 0.374 (inactive)

Lookup: Identify z-score associated with the compound CC(C)N1C(=O)c2ccccc2[C@](C)(C(=O)NCC(F)(F)F)[C@@H]1c1ccc(CO)cc1
Found: -0.377 (inactive)

Lookup: Entry O=C(NCC(O)CO)[C@@]1(CCS(=O)(=O)c2ccccc2)N=C(c2ccc(OCCCO)cc2)O[C@H]1c1ccccc1 (stereo not given in full) needs its z-score filled in; supply it.
Found: 2.38 (inactive)

* * *

Assay: plasmodial surface anion channel blockers, osmotic lysis – cell-based, P. falciparum Indochina, OD700, 1 h, primary screen (AID 1154)
Conditions: P. falciparum Indochina infected RBC osmotic lysis, called active from +8 up or from −8 down
Active and inactive are the calls of the source.
Just give me one of these, please: active, inactive

CN(C)CCCNC(=O)[C@@]1(Cc2ccccc2I)c2ccccc2C(=O)N(C2CCCCC2)[C@H]1c1ccc(CO)cc1 : inactive
[N-]=[N+]=NCc1ccccc1[C@@H]1OC(c2ccc(OCCCO)cc2)=N[C@]1(Cc1ccccc1N=[N+]=[N-])C(=O)NCC(O)CO (stereo partly specified) : active
O=C1NC(=O)C2C1C=CC(C(O)c1ccc(B(O)O)cc1)N2Nc1ccc(Cl)cc1Cl (stereo unspecified) : inactive
COCCOC(=O)N1C(=O)[C@@]2(c3cc(C#CCC(C(=O)OC)C(=O)OC)ccc31)[C@H](C(N)=O)[C@H]1C(=O)O[C@H](c3ccccc3)[C@H](c3ccccc3)N1[C@@H]2c1ccc(O)cc1 : active
COc1ccc([Si](C)(C)[C@H]2[C@H](CC(=O)N3CCC[C@H]3CO)O[C@@]3(C(=O)N(Cc4ccc(N5CCCCC5=O)cc4)c4ccccc43)[C@@H]2C)cc1 : inactive

Lookup: Each compound tested received a call. Report the one for C=C(CCCC)/C(=C/C[C@@H](OC(C)=O)c1ccc(CO)o1)c1cnc2ccccc2c1 .
Found: active

Lookup: Tell me the recorded outcome of this test for CCOC(=O)C1=C[C@@H](C(C)(C)C)N(S(=O)(=O)c2ccc(C)cc2)[C@H]1c1ccc(C#N)cc1 .
Found: inactive

Lookup: Dear colleague, could you share the recorded outcome for COC(=O)[C@@]1(Cc2ccccc2)[C@H]2c3cc(C(=O)N4CCCC4)n(Cc4ccc(OC)c(OC)c4)c3C[C@H]2CN1C(=O)c1ccccc1 when you have a moment?
Found: inactive

* * *

Assay: JC-1 mitochondrial signal, unstimulated HepG2 cells – cell-based, JC-1 fluorescence, 24 h, 100 nL compound, profiling panel (AID 1167); further: test concentration not given here
Settings: HepG2 mitochondrial potential, higher = more signal
Give YES when the value for z-score is at least 0.3. Give NO when it is less.

Illustrative cases are given below, each with its answer.
CCCCC(O)C1C=CC2C(=O)N(c3ccccc3)C(=O)C2N1Nc1ccccc1 (stereo not drawn) : NO
COc1ccc([Si](C)(C)[C@@H]2[C@@H](CC(=O)N3Cc4ccccc4C[C@H]3CO)O[C@]3(C(=O)N(Cc4ccc(N5CCOC5=O)cc4)c4ccccc43)[C@H]2C)cc1 : YES

Lookup: Does COC(=O)[C@@]1(Cc2ccc(OC)cc2)[C@H]2c3cc(C(=O)N(C)C)[nH]c3C[C@H]2CN1C(=O)c1ccccc1 have a reported z-score of at least 0.3?
Found: YES

Lookup: Confirm if z-score reported for the compound O=C(NCCN1CCOCC1)[C@@H]1c2ccccc2C(=O)N(Cc2ccccc2C(F)(F)F)[C@H]1c1ccc(CO)cc1 is 0.3 or above.
Found: YES

Lookup: Exam item: decide whether the reported z-score for CC(C)(C)OC(=O)CC[C@]1(C(=O)NCC(O)CO)N=C(c2ccc(OCCCO)cc2)O[C@H]1c1ccccc1N=[N+]=[N-] (stereo partly drawn) is at least 0.3.
Found: NO

Lookup: Record COc1cc(CO)cc(I)c1O[C@H]1C=C(C(=O)NCCO)C[C@@H]2O[C@H]12 ; criterion: z-score no lower than 0.3. Met?
Found: NO

Lookup: Please check the record COC(=O)[C@H](Cc1ccccc1)N1CC2=CCCC=C[C@@H]2[C@H]1[C@H](O)Cc1ccccc1 and state if its z-score is at or above 0.3.
Found: NO
